- TARGET OF ASSAY: Bromodomain-containing protein 4 (Homo sapiens)
- PROCEDURE TEXT: Inhibition of BRD4 BD2 (unknown origin) preincubated for 15 mins followed by addition of C-terminal biotinylated synthetic K5,8,12,16 tetra-acetylated histone H4 (1 to 20 residues) peptide as substrate measured after 1 hr by TR-FRET assay
Each item that follows carries a reported IC50.

1) Cc1cc2c(cc1N1C(=O)c3cccc4c(CCCO)ccc(c34)C1=O)n(C)c(=O)n2C (single isomer, unassigned; atropisomer 1)
> 20 µM
2) COC1CCN(c2ccc3c4c(cccc24)C(=O)N(c2cc4c(cc2C)n(C)c(=O)n4C)C3=O)CC1
> 15 µM
3) CN1CCN(c2cc3c(cc2N2C(=O)c4cccc5cccc(c45)C2=O)n(C)c(=O)n3C)CC1
> 20 µM
4) Cn1c(=O)n(C)c2cc(N3C(=O)c4cccc5cccc(c45)C3=O)c(Br)cc21
> 20 µM
5) Cc1cc2c(cc1N1C(=O)c3cccc4c(N5CCCC5)ccc(c34)C1=O)n(C)c(=O)n2C
> 15 µM
6) Cc1cc2c(cc1N1C(=O)c3cccc4cc([N+](=O)[O-])cc(c34)C1=O)n(C)c(=O)n2C
> 20 µM

**Q:** May I ask what IC50 has been recorded for `CCCNc1ccc2c3c(cccc13)C(=O)N(c1cc3c(cc1C)n(C)c(=O)n3C)C2=O` ?
**A:** > 15 µM

**Q:** May I ask what IC50 has been recorded for Cc1cc2c(cc1N1C(=O)c3cccc4c(CCCO)ccc(c34)C1=O)n(C)c(=O)n2C (single isomer, unassigned; atropisomer 2) ?
**A:** > 20 µM

====

These records show pIC50 for Bromodomain-containing protein 4 (Homo sapiens).
pIC50: −log10 of the molar value.

Sample answers from the record:
1. Cc1cc2c(cc1N1C(=O)c3cccc4c(N(C)CCN5CCCC5)ccc(c34)C1=O)n(C)c(=O)n2C
< 4.94
2. Cc1cc2c(cc1N1C(=O)c3cccc4c(N5CCN(CCN(C)C)CC5)ccc(c34)C1=O)n(C)c(=O)n2C
< 4.89
3. Cn1c(=O)[nH]c2cc(N3C(=O)c4cccc5c(CCCO)ccc(c45)C3=O)ccc21
< 4.70

**Q:** Request body: readout pIC50, system Bromodomain-containing protein 4 (Homo sapiens), query `Cc1cc2c(cc1N1C(=O)c3cccc4cc(C#N)cc(c34)C1=O)n(C)c(=O)n2C` . Return the value.
**A:** < 4.70

**Q:** Request body: readout pIC50, system Bromodomain-containing protein 4 (Homo sapiens), query `CN1CCN(c2cc3c(cc2N2C(=O)c4cccc5cccc(c45)C2=O)n(C)c(=O)n3C)CC1` . Return the value.
**A:** < 4.70

**Q:** Request body: readout pIC50, system Bromodomain-containing protein 4 (Homo sapiens), query `Cc1cc2c(cc1N1C(=O)c3cccc4cc(Br)cc(c34)C1=O)n(C)c(=O)n2C` . Return the value.
**A:** < 4.77

**Q:** Request body: readout pIC50, system Bromodomain-containing protein 4 (Homo sapiens), query `Cc1cc2c(cc1N1C(=O)c3cccc4c(N5CCN(C)CC5)ccc(c34)C1=O)n(C)c(=O)n2C` . Return the value.
**A:** < 4.84

**Q:** Request body: readout pIC50, system Bromodomain-containing protein 4 (Homo sapiens), query `Cn1c(=O)n(C)c2cc(N3C(=O)c4cccc5cccc(c45)C3=O)ccc21` . Return the value.
**A:** < 4.85

**Q:** Request body: readout pIC50, system Bromodomain-containing protein 4 (Homo sapiens), query `Cc1cc2c(cc1N1C(=O)c3cccc4c(Cl)ccc(c34)C1=O)n(C)c(=O)n2C` . Return the value.
**A:** < 4.99

**Q:** Request body: readout pIC50, system Bromodomain-containing protein 4 (Homo sapiens), query `CN(C)c1cc2c(cc1N1C(=O)c3cccc4cccc(c34)C1=O)n(C)c(=O)n2C` . Return the value.
**A:** < 4.70

**Q:** Request body: readout pIC50, system Bromodomain-containing protein 4 (Homo sapiens), query `Cc1cc2c(cc1N1C(=O)c3cccc4c(N5CCCC5)ccc(c34)C1=O)n(C)c(=O)n2C` . Return the value.
**A:** 4.81

**Q:** Request body: readout pIC50, system Bromodomain-containing protein 4 (Homo sapiens), query `Cc1cc2c(cc1N1C(=O)c3cccc4c(N5CCC(O)CC5)ccc(c34)C1=O)n(C)c(=O)n2C` . Return the value.
**A:** < 4.92

**Q:** Request body: readout pIC50, system Bromodomain-containing protein 4 (Homo sapiens), query `Cc1cc2c(cc1N1C(=O)c3cccc4c(CCCO)ccc(c34)C1=O)n(C)c(=O)n2C` . Return the value.
**A:** < 4.81

**Q:** Request body: readout pIC50, system Bromodomain-containing protein 4 (Homo sapiens), query `Cc1cc2c(cc1N1C(=O)c3cccc4cc([N+](=O)[O-])cc(c34)C1=O)n(C)c(=O)n2C` . Return the value.
**A:** < 4.70

**Q:** Request body: readout pIC50, system Bromodomain-containing protein 4 (Homo sapiens), query `Cc1cc2c(cc1N1C(=O)c3cccc4c(CCCCO)ccc(c34)C1=O)n(C)c(=O)n2C` . Return the value.
**A:** < 4.92

**Q:** Request body: readout pIC50, system Bromodomain-containing protein 4 (Homo sapiens), query `Cc1cc2c(cc1N1C(=O)c3cccc4c(N5CCN(CC6CC6)CC5)ccc(c34)C1=O)n(C)c(=O)n2C` . Return the value.
**A:** < 5.02

**Q:** Request body: readout pIC50, system Bromodomain-containing protein 4 (Homo sapiens), query `Cc1cc2c(cc1N1C(=O)c3cccc4cc(O)cc(c34)C1=O)n(C)c(=O)n2C` . Return the value.
**A:** < 4.85

**Q:** Request body: readout pIC50, system Bromodomain-containing protein 4 (Homo sapiens), query `CCCNc1ccc2c3c(cccc13)C(=O)N(c1cc3c(cc1C)n(C)c(=O)n3C)C2=O` . Return the value.
**A:** < 4.86

# credit: ChEMBL document CHEMBL4049437
